test: NCI Yeast Anticancer Drug Screen. Data for the mgt1 strain (AID 153); conditions: S. cerevisiae mgt1 mutant growth inhibition; at 33.0 µM; active compounds read high
About 79,000 compounds went through this panel and 15% of them were active in at least one assay; those are over-represented in the sample as a whole.
Label TRUE for high-side growth inhibition (at or above 20%) and FALSE for low-side growth inhibition (below it).

These solved cases illustrate the format of a correct answer.
>  <compound>
CC1(C)CC(=O)C(C(CC(c2ccccc2)c2cc3c(cc2O)OCO3)C2=C(O)CC(C)(C)CC2=O)=C(O)C1 (configuration not stated)

>  <label>
TRUE

$$$$
>  <compound>
Cc1ccc(Cl)c2c(=O)c3ccccc3[nH]c12

>  <label>
FALSE

$$$$
>  <compound>
C[Si](C)(C)Cc1ccccc1C(=O)O

>  <label>
FALSE

$$$$

Evaluate `Cc1cc(N(CCOS(C)(=O)=O)CCOS(C)(=O)=O)ccc1C=O` : growth inhibition at minimum 20%?
TRUE

Evaluate `S=c1[nH]nc(Cc2ccccc2)c(=S)[nH]1` : growth inhibition at minimum 20%?
TRUE

Evaluate `O=[N+]([O-])C(=C(NCc1ccccc1)NCc1ccccc1)C(Cl)=C(Cl)Cl` : growth inhibition at minimum 20%?
TRUE
